Task for the reader: assign each of the following compounds its reported EC50.
Target: human mAChR M4 (Homo sapiens, UniProt P08173)
Construct: expressed in transfected cells
Sequence (P08173 1-479): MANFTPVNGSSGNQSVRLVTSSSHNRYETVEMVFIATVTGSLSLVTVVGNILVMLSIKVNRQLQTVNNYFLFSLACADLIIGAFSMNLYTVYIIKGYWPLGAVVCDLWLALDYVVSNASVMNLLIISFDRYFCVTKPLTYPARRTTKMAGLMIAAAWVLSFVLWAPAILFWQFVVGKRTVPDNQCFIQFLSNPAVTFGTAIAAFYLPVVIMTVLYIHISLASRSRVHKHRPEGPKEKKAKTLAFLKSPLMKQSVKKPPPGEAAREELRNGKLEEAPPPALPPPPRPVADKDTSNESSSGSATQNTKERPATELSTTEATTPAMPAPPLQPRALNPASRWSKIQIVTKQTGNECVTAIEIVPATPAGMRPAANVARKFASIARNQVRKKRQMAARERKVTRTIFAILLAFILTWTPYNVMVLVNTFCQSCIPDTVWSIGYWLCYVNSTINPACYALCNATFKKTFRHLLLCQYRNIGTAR
Experiment: mAChR M4 cell-based functional assay (calcium mobilization, CHO-K1 hM4-Gqi5 cells)
Settings: positive allosteric modulator activity, increase in the EC20 acetylcholine response, CHO-K1 hM4-Gqi5 cells; read-out: Human M4 EC50
Give your result in µM as a bare value.

Q) Please give measured EC50 of the following entry: Cc1c(Cl)nc(C(F)(F)F)nc1N1CCc2ncc(Nc3ccnn3C)cc2C1
A) 0.764

Q) Provide EC50 value for the following compound: Cc1cnccc1Nc1cnc2c(c1)CN(c1ncc(C#N)cc1C)CC2
A) 0.072

Q) Give the reported value of EC50 for this record: Cc1cc(C(=O)NCc2ccc3ncnn3c2)cnc1N1CCc2ncc(-c3cn(C)nc3C)cc2C1
A) 0.886

Q) Input Cc1nc(Cl)nc(N2CCc3ncc(C(F)(F)F)cc3C2)c1C , output reported EC50.
A) 0.2

Q) Tell me measured EC50 for Cc1cc(C(=O)N2CCOCC2)nnc1N1CCc2ncc(N3CCCn4nccc43)cc2C1 please.
A) 0.197

Q) Retrieve EC50 measured for Cc1c(C#N)nnc(N2CCc3ncc(N4CCO[C@@H](c5ccccc5)C4)cc3C2)c1C and print it.
A) 3.6

Q) Name the recorded EC50 of the item Cc1cc(C(=O)NCc2ccncc2F)nnc1N1CCc2ncc(C(F)(F)F)cc2C1 in your answer.
A) 0.037

Q) # return recorded EC50 for entry FC(F)(F)c1cnc2c(c1)CN(c1nc(Cl)nc3c1CCC3)CC2
A) 0.217

Q) Report EC50, nothing else, for this compound: Cc1c(C#N)nnc(N2CCc3ncc(C4CC4)cc3C2)c1C
A) 0.098

Q) Respond only with EC50 recorded for Cc1cc(C(=O)N2CC(C)(O)C2)nnc1N1CCc2ncc(CC(F)(F)F)cc2C1
A) 0.322

Q) Tell me measured EC50 for [2H]C([2H])([2H])c1cnc2c(c1)CN(c1nnc(C(=O)N3CC(F)(F)C3)cc1C)CC2 please.
A) 0.041

Q) Give reported EC50 value for Cc1cc(C#N)cnc1N1CCc2ncc(Oc3ccc4c(cnn4C)c3)cc2C1
A) 0.164

Q) State its EC50: Cc1c(C#N)nnc(N2CCc3ncc(-c4cnn(C(F)F)c4)cc3C2)c1C
A) 0.611

Q) Consider the compound Cc1nc(Cl)c(C)c(N2CCc3ncc(Nc4cccnc4F)cc3C2)n1 . State its measured EC50.
A) 0.197

Q) Please indicate EC50 recorded for Cc1cnc(F)cc1-c1cnc2c(c1)CN(c1nnc(C#N)c(C)c1C)CC2
A) 0.233

Q) Tell me its EC50 given Cc1cnccc1CNC(=O)c1cnc(N2CCc3ncc(-c4cn(C)nc4C)cc3C2)c(C)c1 as the entry.
A) 0.15

Q) // fetch EC50 given entry Cc1nc(NC2CC2)nc(N2CCc3ncc(Nc4ccnn4C)cc3C2)c1C
A) 0.178

Hey, just so you know, these numbers are from patent US20250230155A1.
